Taken from patent US20160311882A1.

# TARGET_OR_SYSTEM: T1, human glucagon-like peptide 1 receptor (hGLP-1R) (human, UniProt P43220 24-463)
# T1 construct: whole, on cells; Assay used crude plasma membranes of the expressing 293HEK cells
# MEASUREMENT_PROTOCOL: SPA competition against 125I-labelled GLP-1 amide on 293HEK hGLP-1R membranes, Cheng-Prusoff
Non-standard residues stand in square brackets, D forms with d. No end group written: not given here. Aib = CC(C)(N)C(=O)O
READOUT_KIND: Ki (nM)

{"BINDER": "YSQGTFTSDYSKYLD[Aib]KKAQEFVEWLLKTGPSSGAPPKSK-NH2 (also: acetate salt, Synthetic peptide made on Rink amide resin; acetate salt) [compound of SEQ ID NO: 2]", "QUANTITY_UNIT": "nM", "DATA_VALUE": 2540}
